Property: melting point; scope: individual compounds

| Compound | Value measured |
| --- | --- |
| O=c1sc2ccccc2n1CO | 101 to 103 °C |
| CC(=O)C(=Cc1cc(O)c(O)c(C(F)(F)F)c1)C(C)=O | 198 to 205 °C |

### Prompt State the recorded melting point for this entry: `CC(=O)Oc1ccc2c(ccc3ccccc32)c1`
### Response 141 to 142 °C

### Prompt // query melting point value for entry `COc1c2occc2cc2cc(C(=O)O)c(=O)oc12`
### Response 227 to 228 °C

### Prompt // lookup melting point for CC(C)(C)OC(=O)NC(CC1CCCCC1)C(O)C(O)C(CC1CCCCC1)NC(=O)OC(C)(C)C (stereo unspecified)
### Response 224 to 226 °C

### Prompt For the compound shown here, `Cn1nc2nc(-c3ccc(N)c(C#N)c3)cc(C(F)(F)F)c2c1-c1ccccc1` , give the reported melting point.
### Response 295 °C

### Prompt What value of measured melting point is listed for `O=C(O)c1nc(-c2ccccc2Cl)nc2ccccc12` ?
### Response 171 °C

====

Each item that follows carries a reported melting point.

Example results:
| Compound | melting point |
| --- | --- |
| CCOC(=O)C(=Cc1cccn2cc(C(C)C)nc12)N=[N+]=[N-] | 66 to 68 °C |
| OCc1ccc(Nc2nc(Oc3ccccc3)nc(Oc3ccccc3)n2)cc1 | 152 to 154 °C |
| CCCCOc1ccc(CCCO)c(Oc2ncc(C(F)(F)F)cc2Cl)c1 | 72.6 to 72.7 °C |
| CC1CCC(=O)N1c1cc(-c2ccnc(Nc3cccc(Cl)c3)n2)ccn1 (stereo not given) | 162 to 164 °C |
| Cc1ccccc1-n1c(CC(O)c2ccccc2)nc2ccccc2c1=O (stereo not given) | 119 °C |
| O=c1[nH]c2cccnc2n1CCCN1CCC(C(O)(c2ccc(F)cc2)c2ccccn2)CC1 (stereo not given) | 140 to 144 °C |

### Prompt Look up melting point: `COc1ccc2nc(-n3nc4c(c3O)-c3ccccc3CC4)sc2c1`
### Response 204 to 205 °C

### Prompt What value of melting point has been reported for the following compound? CC1(C)Oc2ccc(C(N)=O)cc2C(c2cccn(Cc3ccccc3)c2=O)C1O (stereo not given)
### Response 230 to 235 °C

### Prompt Recorded melting point of `CCC(C=O)(CC)SN(C)C(=O)ON=C1SC(C)(C)C(=O)N1C` , please.
### Response 105 to 106 °C

### Prompt Entry `O=C(OCc1ccc(Cl)cc1)c1ncn2c1[C@@H]1CCCN1C(=O)c1c(Cl)cccc1-2` : reported melting point = ?
### Response 183 to 184 °C

### Prompt Sample `O=C(NCc1ccc(I)cc1Cl)C1CC1` — what was its melting point?
### Response 158 to 160 °C

====

Assay metric: melting point

Known results for compounds:
| Compound | melting point |
| --- | --- |
| CCN(CC)C(=O)Nc1ccc(S(=O)(=O)N2C(=O)C(N[C@@H](C)C(=O)OC)(c3ccccc3Cl)c3cc(Cl)ccc32)cc1 (some centres undefined) | 204 °C |
| COC(=O)c1ccc2occ(-c3cccc(OC(F)(F)F)c3)c2c1 | 93 to 94 °C |

### Prompt If you can, please state the reported melting point value of COC(=O)Nc1nc2cc(C(c3cccc(Cl)c3)n3ccnc3)ccc2[nH]1 (centres undefined) .
### Response 168 °C

### Prompt Which melting point value is on record for `CS(=O)(=O)c1ccc(C2=C(c3ccccc3)C(=O)C3(CCCCC3)O2)cc1` ?
### Response 126 to 127 °C

Reference source for all entries: a melting point compilation (Tetko et al.; mined from patent text by program, amines drawn as free bases though some values may be those of a salt)
